- Test system: CX-1 Human Colon Carcinoma
- experimental-protocol: Clonogenic dye screening assay, CX-1 cells (IC50)
- Format: cell-based
- Parameters: unit not given here
- experimental-conditions: Table XV, symmetrical dyes; CX-1 cells
reported-property: CX
Please state the value as a number alone, without comment.

These solved cases illustrate the format of a correct answer.
[
  {
    "compound": "CCN1C(=CC=Cc2oc3ccccc3[n+]2CC)Oc2ccccc21",
    "CX": 0.10
  },
  {
    "compound": "CCN1C(=CC=Cc2ccc3ccccc3[n+]2CC)C=Cc2ccccc21",
    "CX": 0.040
  },
  {
    "compound": "CN1C(=CC=Cc2[te]c3ccccc3[n+]2C)[Te]c2ccccc21",
    "CX": 0.3
  }
]

Now consider a different compound.
Lookup: Requested field: CX. Item: CN1C(=CC=Cc2[se]c3ccccc3[n+]2C)[Se]c2ccccc21
Found: 0.008

* * *

IC50 overview
- System: CX-1 Human Colon Carcinoma
- experimental-protocol: Clonogenic dye screening assay, CX-1 cells (IC50)
- Format: cell-based
- experimental-conditions: Homo sapiens, CX-1, 3 hrs treatment, colonies after 7-10 days; unit from method; read-out: CX (IC50 in the CX-1 cell line)
Please reply with the bare figure in ng/mL and do not write the unit itself.

[
  {
    "compound": "CN1/C(=C/C=C/c2sc3ccccc3[n+]2C)Sc2ccccc21",
    "reported-property": "IC50",
    "result-value": 5
  },
  {
    "compound": "CC[n+]1c(/C=C/C=C2/c3c(C)ccc(C)c3C(C)(Cc3ccccc3)N2C)sc2ccc3ccccc3c21 (stereo not drawn)",
    "reported-property": "IC50",
    "result-value": 9
  }
]

Lookup: Requested field: IC50. Item: CCN1/C(=C\C=c2\s/c(=C/c3sc4ccccc4[n+]3CC)n(C)c2=O)Sc2ccccc21
Found: 30

Lookup: Requested field: IC50. Item: CC[n+]1c(/C=C/C=C2\Sc3ccccc3N2CC#N)oc2ccccc21
Found: 100

Lookup: Requested field: IC50. Item: CCC(/C=C1\Sc2ccc(Cl)cc2N1C)=C\c1oc2ccc(-c3ccccc3)cc2[n+]1C
Found: 50

Lookup: Requested field: IC50. Item: CCN1C(=CC=Cc2sc3cc4ccccc4nc3[n+]2CC)Sc2cc3ccccc3nc21
Found: 30

Lookup: Requested field: IC50. Item: CCN1/C(=C/C=C/c2sc3ccccc3[n+]2CC)Oc2ccccc21
Found: 5

Lookup: Requested field: IC50. Item: CN1/C(=C/c2ccc3ccc4ccccc4c3[n+]2C)Sc2ccccc21
Found: 5

* * *

- Tested on: CX-1 Human Colon Carcinoma
- experimental-protocol: Clonogenic dye screening assay, CX-1 cells (IC50)
- Format: cell-based
- experimental-conditions: Table XVII; selectivity ratio of IC50 values
reported-property: CV/CX
Please state the value as a number alone, without comment.

These solved cases illustrate the format of a correct answer.
[
  {
    "compound": "CCN1/C(=C/C(C)=C/c2[te]c3ccc(C)cc3[n+]2CC)Sc2ccccc21 [R=E, X=S, Z1=5-Me, R2=Me, Z2=H]",
    "reported-property": "CV/CX",
    "result-value": 26.6
  },
  {
    "compound": "CC[n+]1c(/C=C/C=C2\\[Te]c3ccccc3N2C)sc2ccc3ccccc3c21.[I-] [Dye D-151]",
    "reported-property": "CV/CX",
    "result-value": 71.4
  },
  {
    "compound": "CCN1C(=CC=Cc2[te]c3ccc(C)cc3[n+]2CC)[Te]c2ccc(C)cc21 [R=E, X=Te, Z1=5-Me, R2=H, Z2=5-Me]",
    "reported-property": "CV/CX",
    "result-value": 7.7
  }
]

Now consider a different compound.
Lookup: Give CV/CX (CX-1 Human Colon Carcinoma) of the following compound: CCN1/C(=C/C=C/c2[te]c3cc(OC)c(OC)cc3[n+]2C)Sc2ccccc21 [R=M/E, X=S, Z1=5,6-MeO, R2=H, Z2=H]
Found: 2.0

From: patent US20060099712A1
